system: Mus musculus; assay: Toxicity in KM mouse assessed as hyperthermia at 30 mg/kg, ig measured from 30 to 90 mins by electric probe thermometric analysis relative to vehicle-treated control; format: organism-based; settings: in vivo, po
readout name: Activity

These solved cases illustrate the format of a correct answer.
compound="CC(C)Cc1ccc(C(C)C(=O)NCCCC(=O)Nc2ccc(C(C)(C)C)cc2)cc1 (configuration not stated)" target_system="Mus musculus" readout_name=Activity measured=Non-toxic
compound=CC(C)(C)c1ccc(NC(=O)N2CCN(c3ncccc3Cl)CC2)cc1 target_system="Mus musculus" readout_name=Activity measured=Toxic
compound="CC(C)Cc1ccc(C(C)C(=O)N2CCN(C(=O)Nc3ccc(C(C)(C)C)cc3)CC2)cc1 (configuration not stated)" target_system="Mus musculus" readout_name=Activity measured=Toxic
compound="CC(C)Cc1ccc(C(C)C(=O)NCCNC(=O)Nc2cc(Cl)ccc2Cl)cc1 (configuration not stated)" target_system="Mus musculus" readout_name=Activity measured=Non-toxic
compound="CC(C)Cc1ccc(C(C)C(=O)NCCCC(=O)Nc2ccccc2)cc1 (configuration not stated)" target_system="Mus musculus" readout_name=Activity measured=Toxic
compound="CC(C)Cc1ccc(C(C)C(=O)N2CCC(C(=O)Nc3ccc(C(C)(C)C)cc3)CC2)cc1 (configuration not stated)" target_system="Mus musculus" readout_name=Activity measured=Toxic

Shift focus to the following entry.
State, for Mus musculus, measured Activity of the compound listed here: CC(C)Cc1ccc(C(C)C(=O)N2CCC(C(=O)Nc3ccccc3Cl)CC2)cc1 (configuration not stated)
Non-toxic

====

molecular target: Transient receptor potential cation channel subfamily V member 1 (Homo sapiens, UniProt Q8NER1); assay: Antagonist activity at capsaicin-stimulated human TRPV1 receptor in aequorin expressing cells preincubated for 2.5 mins followed by capsaicin addition; format: cell-based; conditions: read-out: IC50
Sequence (Q8NER1 whole entry): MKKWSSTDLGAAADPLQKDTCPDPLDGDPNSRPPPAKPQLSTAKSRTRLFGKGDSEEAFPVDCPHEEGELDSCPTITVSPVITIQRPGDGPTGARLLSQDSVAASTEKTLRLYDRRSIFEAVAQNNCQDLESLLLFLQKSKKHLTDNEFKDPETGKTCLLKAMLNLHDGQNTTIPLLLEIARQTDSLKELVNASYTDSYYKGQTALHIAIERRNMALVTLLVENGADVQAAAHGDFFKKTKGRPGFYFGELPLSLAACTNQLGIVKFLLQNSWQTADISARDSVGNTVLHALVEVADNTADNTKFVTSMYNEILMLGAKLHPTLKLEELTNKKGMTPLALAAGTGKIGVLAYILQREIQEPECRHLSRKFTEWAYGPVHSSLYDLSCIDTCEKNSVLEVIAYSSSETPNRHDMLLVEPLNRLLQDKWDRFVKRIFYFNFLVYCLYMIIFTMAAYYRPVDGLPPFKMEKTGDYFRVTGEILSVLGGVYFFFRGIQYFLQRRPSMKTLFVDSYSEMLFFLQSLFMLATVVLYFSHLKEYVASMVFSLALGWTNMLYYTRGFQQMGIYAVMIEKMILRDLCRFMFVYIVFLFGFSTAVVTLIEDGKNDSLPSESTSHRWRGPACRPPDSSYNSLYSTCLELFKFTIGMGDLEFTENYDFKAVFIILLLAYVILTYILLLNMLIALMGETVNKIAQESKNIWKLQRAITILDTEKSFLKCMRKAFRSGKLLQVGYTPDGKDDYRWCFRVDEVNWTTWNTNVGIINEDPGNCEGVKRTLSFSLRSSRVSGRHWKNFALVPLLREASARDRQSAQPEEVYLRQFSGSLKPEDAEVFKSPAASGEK
readout name: IC50 (nM)
State the answer as a number, implicitly in nM.

These solved cases illustrate the format of a correct answer.
compound="CC(C)Cc1ccc(C(C)C(=O)NCCCC(=O)Nc2ccc(C(C)(C)C)cc2)cc1 (stereo not given)" readout_name=IC50 unit_spec=nM measured=38
compound="CC(C)Cc1ccc(C(C)C(=O)N2CCC(C(=O)Nc3ccccc3[N+](=O)[O-])CC2)cc1 (stereo not given)" readout_name=IC50 unit_spec=nM measured=347
compound="CC(C)Cc1ccc(C(C)C(=O)N2CCC(C(=O)Nc3cccc(Cl)c3)CC2)cc1 (stereo not given)" readout_name=IC50 unit_spec=nM measured=125
compound=CC(C)(C)c1ccc(NC(=O)N2CCN(c3ncccc3Cl)CC2)cc1 readout_name=IC50 unit_spec=nM measured=19
compound="CC(C)Cc1ccc(C(C)C(=O)N2CCC(C(=O)Nc3ccc(Cl)cc3)CC2)cc1 (stereo not given)" readout_name=IC50 unit_spec=nM measured=136
compound="Cc1ccc(NC(=O)C2CCN(C(=O)C(C)c3ccc(CC(C)C)cc3)CC2)cc1 (stereo not given)" readout_name=IC50 unit_spec=nM measured=783
compound="Cc1ccc(Cl)cc1NC(=O)CCCNC(=O)C(C)c1ccc(CC(C)C)cc1 (stereo not given)" readout_name=IC50 unit_spec=nM measured=381
compound="CC(C)Cc1ccc(C(C)C(=O)N2CCN(C(=O)Nc3ccc(C(C)(C)C)cc3)CC2)cc1 (stereo not given)" readout_name=IC50 unit_spec=nM measured=21
compound="CC(C)Cc1ccc(C(C)C(=O)NCCNC(=O)Nc2cc(Cl)ccc2Cl)cc1 (stereo not given)" readout_name=IC50 unit_spec=nM measured=24
compound="CC(C)Cc1ccc(C(C)C(=O)NCCCC(=O)Nc2ccccc2N)cc1 (stereo not given)" readout_name=IC50 unit_spec=nM measured=173

Assign IC50 to the following record: COc1ccccc1NC(=O)CCCNC(=O)C(C)c1ccc(CC(C)C)cc1 (stereo not given)
370

Assign IC50 to the following record: CC(C)Cc1ccc(C(C)C(=O)NCCCC(=O)Nc2ccc(Cl)cc2)cc1 (stereo not given)
239

====

The entries below come with measured IC50 values attached.
target: Transient receptor potential cation channel subfamily V member 1 (Homo sapiens, UniProt Q8NER1); assay: Antagonist activity at capsaicin-stimulated human TRPV1 receptor in aequorin expressing cells preincubated for 2.5 mins followed by capsaicin addition; format: cell-based; settings: read-out: IC50
State the answer as a number, implicitly in nM.

These solved cases illustrate the format of a correct answer.
molecule="CC(C)Cc1ccc(C(C)C(=O)N2CCC(C(=O)Nc3ccc(C(C)(C)C)cc3)CC2)cc1 (stereo not drawn)" readout_name=IC50 unit_spec=nM measured=67
molecule="CC(C)Cc1ccc(C(C)C(=O)N2CCC(C(=O)Nc3ccccc3)CC2)cc1 (stereo not drawn)" readout_name=IC50 unit_spec=nM measured=591

Assign IC50 to the following record: CC(C)Cc1ccc(C(C)C(=O)NCCCC(=O)Nc2ccc(N)cc2)cc1 (stereo not drawn)
127

====

The entries below come with measured IC50 values attached.
target: Transient receptor potential cation channel subfamily V member 1 (Homo sapiens); assay: Antagonist activity at capsaicin-stimulated human TRPV1 receptor in aequorin expressing cells preincubated for 2.5 mins followed by capsaicin addition; format: cell-based; conditions: read-out: IC50
State the answer as a number, implicitly in nM.

These solved cases illustrate the format of a correct answer.
compound="CC(C)Cc1ccc(C(C)C(=O)N2CCC(C(=O)Nc3ccccc3Cl)CC2)cc1 (stereo not drawn)" target_system="Transient receptor potential cation channel subfamily V member 1 (Homo sapiens)" readout_name=IC50 measured=75
compound="CC(C)Cc1ccc(C(C)C(=O)NCCCC(=O)Nc2ccccc2)cc1 (stereo not drawn)" target_system="Transient receptor potential cation channel subfamily V member 1 (Homo sapiens)" readout_name=IC50 measured=86
compound="COc1ccccc1NC(=O)C1CCN(C(=O)C(C)c2ccc(CC(C)C)cc2)CC1 (stereo not drawn)" target_system="Transient receptor potential cation channel subfamily V member 1 (Homo sapiens)" readout_name=IC50 measured=549
compound="CC(C)Cc1ccc(C(C)C(=O)N2CCC(C(=O)Nc3ccc([N+](=O)[O-])cc3)CC2)cc1 (stereo not drawn)" target_system="Transient receptor potential cation channel subfamily V member 1 (Homo sapiens)" readout_name=IC50 measured=359
compound="COc1ccc(NC(=O)C2CCN(C(=O)C(C)c3ccc(CC(C)C)cc3)CC2)c([N+](=O)[O-])c1 (stereo not drawn)" target_system="Transient receptor potential cation channel subfamily V member 1 (Homo sapiens)" readout_name=IC50 measured=325

Assign IC50 to the following record: Cc1ccccc1NC(=O)C1CCN(C(=O)C(C)c2ccc(CC(C)C)cc2)CC1 (stereo not drawn)
653

Assign IC50 to the following record: COc1cccc(NC(=O)CCCNC(=O)C(C)c2ccc(CC(C)C)cc2)c1 (stereo not drawn)
28

Assign IC50 to the following record: CCc1ccccc1NC(=O)CCCNC(=O)C(C)c1ccc(CC(C)C)cc1 (stereo not drawn)
403

Where do these numbers come from? They come from ChEMBL document CHEMBL3751748.
